Target: Endothelin-1 receptor (Rattus norvegicus)
Sequence (P26684 whole entry): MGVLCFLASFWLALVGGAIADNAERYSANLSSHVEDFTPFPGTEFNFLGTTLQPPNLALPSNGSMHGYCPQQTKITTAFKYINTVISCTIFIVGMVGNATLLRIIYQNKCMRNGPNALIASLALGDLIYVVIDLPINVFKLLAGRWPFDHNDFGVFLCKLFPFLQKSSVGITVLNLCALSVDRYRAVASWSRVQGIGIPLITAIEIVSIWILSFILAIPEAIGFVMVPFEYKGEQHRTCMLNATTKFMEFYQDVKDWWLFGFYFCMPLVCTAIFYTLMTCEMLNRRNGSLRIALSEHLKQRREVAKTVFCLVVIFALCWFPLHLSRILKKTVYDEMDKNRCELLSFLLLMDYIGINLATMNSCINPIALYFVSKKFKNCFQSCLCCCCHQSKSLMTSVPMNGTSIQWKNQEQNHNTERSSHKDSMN
Assay: Inhibitory activity against the Endothelin A receptor of rat MMQ cells
Experimental readout: log10 IC50 (log10 of the value in µM)
log10 IC50, µM

Could you tell me log10 IC50 for each of these molecules? They are listed below.
1. CCCS(=O)(=O)CCN1C[C@@H](c2ccc3c(c2)OCO3)[C@H](C(=O)O)[C@H]1c1ccc(OC)cc1
2. COc1ccc([C@@H]2[C@@H](C(=O)O)[C@H](c3ccc4c(c3)OCO4)CN2CC(=O)N(C)CC(C)C)cc1
3. CCCC(CCC)C(=O)CN1C[C@@H](c2ccc3c(c2)OCO3)[C@H](C(=O)O)[C@H]1c1ccc(OC)cc1

1: -1.43; 2: -2.73; 3: -1.07

Could you tell me log10 IC50 for each of these molecules? They are listed below.
1. CCCCN(C)C(=O)CN1C[C@@H](c2ccc3c(c2)OCO3)[C@H](C(=O)O)[C@H]1c1ccc(OC)cc1
2. CCCCN(CCC)C(=O)CN1C[C@@H](c2ccc3c(c2)OCO3)[C@H](C(=O)O)[C@H]1c1ccc(OC)cc1
3. CCCCNC(=O)CN1C[C@@H](c2ccc3c(c2)OCO3)[C@H](C(=O)O)[C@H]1c1ccc(OC)cc1

1: -2.33; 2: -3.66; 3: -1.37

Could you tell me log10 IC50 for each of these molecules? They are listed below.
1. COc1ccc([C@@H]2[C@@H](C(=O)O)[C@H](c3ccc4c(c3)OCO4)CN2C/C=C/CC(C)C)cc1
2. COc1ccc(NC(=O)N2C[C@@H](c3ccc4c(c3)OCO4)[C@H](C(=O)O)[C@H]2c2ccc(OC)cc2)cc1
3. CCN(CC)C(=O)CN1C[C@@H](c2ccc3c(c2)OCO3)[C@H](C(=O)O)[C@H]1c1ccc(OC)cc1
4. CCCCN(C(=O)CN1C[C@@H](c2ccc3c(c2)OCO3)[C@H](C(=O)O)[C@H]1c1ccc(OC)cc1)c1ccccc1
5. CCCCCCN1C[C@@H](c2ccc3c(c2)OCO3)[C@H](C(=O)O)[C@H]1c1ccc(OC)cc1
6. CCCCCCN(C)C(=O)CN1C[C@@H](c2ccc3c(c2)OCO3)[C@H](C(=O)O)[C@H]1c1ccc(OC)cc1

1. 0.21
2. -0.11
3. -1.48
4. -3.09
5. 0.46
6. -2.12

Could you tell me log10 IC50 for each of these molecules? They are listed below.
1. CCCCN(CCCC)CC(=O)N1C[C@@H](c2ccc3c(c2)OCO3)[C@H](C(=O)O)[C@H]1c1ccc(OC)cc1
2. COc1ccc([C@@H]2[C@@H](C(=O)O)[C@H](c3ccc4c(c3)OCO4)CN2CC(=O)N(CCC(C)C)CCC(C)C)cc1
3. CCCCOCCN1C[C@@H](c2ccc3c(c2)OCO3)[C@H](C(=O)O)[C@H]1c1ccc(OC)cc1
4. CCCNC(=O)CN1C[C@@H](c2ccc3c(c2)OCO3)[C@H](C(=O)O)[C@H]1c1ccc(OC)cc1

1: 0.83; 2: -3.37; 3: -0.66; 4: -1.76
